B1: C1orf137 (parent)
chain: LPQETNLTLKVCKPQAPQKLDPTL

Variants of: B1
Experiment: protein stability index of a GFP-peptide fusion (GPS, HEK-293T) (PSI 1-6); higher = more stable;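 further: lentivirally expressed fusions sorted by FACS into six bins by GFP to DsRed ratio, PSI derived from sequencing read proportions per bin multiplied by bin number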
Conditions: c terminus: a fixed tail appended
In this section, each of the variants is paired with its reported protein stability index.
Experimental Readout: protein stability index

Changes: T5S
Value Measured: 3.9
//
Changes: Q15A
Value Measured: 3.91
//
Changes: Q15G
Value Measured: 3.93
//
Changes: K19T
Value Measured: 4.06
